Below is a list of entries, each paired with its recorded IC50 value.
Tested on: TE-11;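 also: growth inhibition of human TE-11 cells, read out by a cell viability assay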
ASSAY EXPLANATION: cells
Assay type: functional, cell-based, Homo sapiens
STATED CONDITIONS: Homo sapiens, TE-11
Description: SANGER: Inhibition of human TE-11 cell growth in a cell viability assay.
Structures can show the parent of a compound that is named as a salt.

# COMPOUND, OP, IC50 (nM)
records = [
    ("COC1=CC(c2cc3ccccc3[nH]2)=N/C1=C\\c1[nH]c(C)cc1C [OBATOCLAX MESYLATE]", "=", 302),
    ("COc1cc(-c2nn([C@H]3CC[C@H](N4CCN(C(C)=O)CC4)CC3)c3ncnc(N)c23)ccc1NC(=O)c1cc2ccccc2n1C", "=", 1580),
    ("CC(C)c1ccccc1Cc1cc(C(=O)Nc2ccc(S(=O)(=O)c3ccccc3C(C)(C)C)cc2)c(O)c(O)c1O", "=", 151),
    ("N[C@@H](CSC(c1ccccc1)(c1ccccc1)c1ccccc1)C(=O)O [S-TRITYL-L-CYSTEINE]", "=", 451),
    ("OCCCNc1cc(-c2ccnc(Nc3cccc(Cl)c3)n2)ccn1", "=", 34.2),
    ("Cc1cn(-c2cc(NC(=O)c3ccc(C)c(Nc4nccc(-c5cccnc5)n4)c3)cc(C(F)(F)F)c2)cn1 [NILOTINIB]", ">", 2000),
    ("COc1cccc2c1C(=O)c1c(O)c3c(c(O)c1C2=O)C[C@@](O)(C(=O)CO)C[C@@H]3O[C@H]1C[C@H](N)[C@H](O)[C@H](C)O1 [DOXORUBICIN]", "=", 241),
]
